Provenance of the data: PubChem BioAssay AID1159506

assay: Identification of proteins required for the processing of the EWS-FLI1 nascent transcript; settings: TC32 Ewing sarcoma NR0B1-luc vs CMV-luc, 48 h; screened at 20 nM (by protocol);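 further: robust z of luciferase light less the median z of siRNAs with the same seed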
Whole data set: some 59,000 sequences, median the read-out near -0.00055, cut for the lowest 2% near -2. The full list was thinned out, with the lowest values kept by preference.
Observable: seed-corrected z-score
Just the number.

Q. Requested field: seed-corrected z-score. Item: AUAGGACUGACAGUGUUCA against STAC3
A. 1.13

Q. Requested field: seed-corrected z-score. Item: UUAGCAUGAUGAUCAAGGC against LIN28B
A. 0.22

Q. Requested field: seed-corrected z-score. Item: UAUCCUAAAAUCGCUGUUG against ARNTL2
A. -0.114

Q. Requested field: seed-corrected z-score. Item: UUAGAGCUACUGAACUGCC against DHX58
A. 0.739

Q. Requested field: seed-corrected z-score. Item: UCGUUUACCAAACAGUUUC against BTK
A. -0.0928

Q. Requested field: seed-corrected z-score. Item: UACCGGAAAGACAAGAUAG against CRYBG3
A. 0.146

Q. Requested field: seed-corrected z-score. Item: AUCUUGAUAGGGACCUUGG against PRAP1
A. 0.654

Q. Requested field: seed-corrected z-score. Item: UUCUGGUAGAAGCAUUUCC against ZNF25
A. -1.93

Q. Requested field: seed-corrected z-score. Item: UAAAUUUGUCGAGUUGCUC against CFAP99
A. 0.485

Q. Requested field: seed-corrected z-score. Item: UACUCUUCCAACGACAGGC against UQCC2
A. 0.919

Q. Requested field: seed-corrected z-score. Item: ACAUAUAGUAUCAUUAUGG against SLC35D2
A. 0.0309

Q. Requested field: seed-corrected z-score. Item: UAAUGUCAAAUUUUCCUCC against P2RX7
A. -0.332

Q. Requested field: seed-corrected z-score. Item: AAUGAUUGCACUAAUCUUC against IK
A. -3.4

Q. Requested field: seed-corrected z-score. Item: UAUUUCUCGAUUAUCUUCA against ICA1L
A. -1.21

Q. Requested field: seed-corrected z-score. Item: UAUAUAUCGUGCUUGAUAC against RIPK2
A. 0.0696

Q. Requested field: seed-corrected z-score. Item: UGAUUUCUGACCUCCAUUC against TMEM43
A. 1.18

Q. Requested field: seed-corrected z-score. Item: ACAGCUAACAUGGACACUC against SHTN1
A. 0.393

Q. Requested field: seed-corrected z-score. Item: UACCCGGAAAAGUAAAUCC against ROBO2
A. 0.288

Q. Requested field: seed-corrected z-score. Item: AAGGGAUAAGGGAUCAUCC against ST7
A. -0.0379

Q. Requested field: seed-corrected z-score. Item: UACACUUUCAAAAUCUCUC against ZNF845
A. 0.844

Q. Requested field: seed-corrected z-score. Item: UUCUGAACCUUCGCAGUGC against PPP1R3B
A. 0.0534

Q. Requested field: seed-corrected z-score. Item: UAAGAUAUUUGUCCAACAG against YWHAB
A. 0.25

Q. Requested field: seed-corrected z-score. Item: UUCCAGACCAUGAGAUGCC against PIGO
A. -0.121

Q. Requested field: seed-corrected z-score. Item: UUCUCUUCCAUCUCCGCCC against TNRC18
A. -0.725

Q. Requested field: seed-corrected z-score. Item: UUGGAAAGCAGUGUCUCUG against KRTAP8-1
A. -0.147

Q. Requested field: seed-corrected z-score. Item: UAUGAGGUAAAGUGGGAAG against LCE2A
A. -2.17

Q. Requested field: seed-corrected z-score. Item: AGCAUUACAACUAAAAUCC against ZSCAN10
A. -3.27

Q. Requested field: seed-corrected z-score. Item: AUACGUGUUCUCAAUGAUC against RNF121
A. 0.696

Q. Requested field: seed-corrected z-score. Item: UGACAUACCAGAGGAAGUG against PLEKHH1
A. -0.0437

Q. Requested field: seed-corrected z-score. Item: UAGGUAAUAAUUCACAAUG against CCL19
A. -0.226

Q. Requested field: seed-corrected z-score. Item: UUAUGUGAACCAUCGCAGG against CISD2
A. 0.515

Q. Requested field: seed-corrected z-score. Item: AAACAGAAGAGGGAGUGGG against LINC01567
A. -2.3

Q. Requested field: seed-corrected z-score. Item: UUCACCAUGACAGCCGAAG against RPL37AP8
A. -0.494

Q. Requested field: seed-corrected z-score. Item: UUAGGCUUAUUUCCCGCUC against BTN3A2
A. -0.656

Q. Requested field: seed-corrected z-score. Item: AUGGUGACAAUUGAACUCC against IGF1R
A. -1.36

Q. Requested field: seed-corrected z-score. Item: UCAAGAGAAUUCUGUAAUC against C5orf60
A. -0.0754

Q. Requested field: seed-corrected z-score. Item: UCAUAUGGAACUCUAAAGC against PIK3CG
A. 0.358

Q. Requested field: seed-corrected z-score. Item: ACUAAUACUAAAUUCAACC against CSDE1
A. 1.52

Q. Requested field: seed-corrected z-score. Item: UGAGCAUUUAUUGUGAGUG against OR2T6
A. -0.244

Q. Requested field: seed-corrected z-score. Item: AUCUGGAUCGCUCAGCUCC against TMEM235
A. 0.0464

Q. Requested field: seed-corrected z-score. Item: UCAAUUUUGAGUCCAUUGG against ANKRD46
A. 0.911

###

assay: Identification of proteins required for the processing of the EWS-FLI1 nascent transcript; details: TC32 Ewing sarcoma NR0B1-luc vs CMV-luc, 48 h; screened at 20 nM (by protocol);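 further: robust z of luciferase light less the median z of siRNAs with the same seed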
The full ranking holds about 59,000 sequences; the median of the read-out is about -0.00055, and the lowest 2% start at about -2. The entries come from a sample that favours the lowest values as a whole.
Provide the reported seed-corrected z-score of each item.
Just the number.

Q. Requested field: seed-corrected z-score. Item: UUAGGUAACGGAAACGGGC against LDHC
A. 0.562

Q. Requested field: seed-corrected z-score. Item: UUUAGGUACAGAAUCCCUG against HDHD3
A. 0.511

Q. Requested field: seed-corrected z-score. Item: UUUGGUAAACUUCUGACUC against AFP
A. 0.408

Q. Requested field: seed-corrected z-score. Item: AUGGAGACAAGUUACCUGU against DCX
A. -1.34

Q. Requested field: seed-corrected z-score. Item: UGCAUGAAUAGAGUCGGCG against RAB22A
A. -0.347

Q. Requested field: seed-corrected z-score. Item: UGGGUAUUUGAUCUUGUCG against LZTR1
A. -1.37

Q. Requested field: seed-corrected z-score. Item: UGCUCUUUUGCUUACGUGG against GAB1
A. -1.74

Q. Requested field: seed-corrected z-score. Item: AGCGUAGUCAGUGUAGACC against DNAH2
A. 0.323

Q. Requested field: seed-corrected z-score. Item: UCCAGAUUCAAAAUGUCUU against NKX2-3
A. 0.184

Q. Requested field: seed-corrected z-score. Item: UACUAGAUGUGGUGCAUCC against RPS6KA3
A. 0.496

Q. Requested field: seed-corrected z-score. Item: AAGUUACCCACGUAGAUGC against SRSF1
A. -1.35

Q. Requested field: seed-corrected z-score. Item: AAAGUAAUAGAAGUGUUUG against MOB3B
A. 0.429

Q. Requested field: seed-corrected z-score. Item: UCAAUUACACCCUCAUUUG against SRSF6
A. -2.18

Q. Requested field: seed-corrected z-score. Item: UAUAUCUGCAACACGGUGG against SND1
A. 0.153

###

assay: Identification of proteins required for the processing of the EWS-FLI1 nascent transcript; settings: TC32 Ewing sarcoma NR0B1-luc vs CMV-luc (EWS-FLI1 target promoter against control promoter), 48 h; screened at 20 nM (by protocol);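 further: robust z of luciferase light less the median z of siRNAs with the same seed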
Over roughly 59,000 sequences, the read-out has its median near -0.00055; the lowest 2% begin near -2. The entries come from a sample that favours the lowest values as a whole.
Rule: seed-corrected z-score below -0.3 gives label 1. Equal to or above -0.3 gives label 0.

Q. Given the entry UCAUUGAUUAGGUGGAUGC against RRP9 , would its reported seed-corrected z-score be below -0.3?
A. label 1

Q. Given the entry UGGUCUGCAAAGGUAAUGC against PLRG1 , would its reported seed-corrected z-score be below -0.3?
A. label 0

Q. Given the entry AAACUUAUAGAACUCACUG against CCDC148 , would its reported seed-corrected z-score be below -0.3?
A. label 0

Q. Given the entry UCUGGAUCGAGGAAGCGAG against GNLY , would its reported seed-corrected z-score be below -0.3?
A. label 1

Q. Given the entry AAAGCAAAUAGUAUGGUUC against ATG5 , would its reported seed-corrected z-score be below -0.3?
A. label 0

Q. Given the entry UCCGUAUCCAGCUCGUCCU against NXNL1 , would its reported seed-corrected z-score be below -0.3?
A. label 1

Q. Given the entry UAUGAGUGCUCCACGAUGC against APOL3 , would its reported seed-corrected z-score be below -0.3?
A. label 0

Q. Given the entry AUGGAGGUAAUGACGAUCA against UPK3B , would its reported seed-corrected z-score be below -0.3?
A. label 1

Q. Given the entry AUGGUGAUCAUGGGACUGC against BEST1 , would its reported seed-corrected z-score be below -0.3?
A. label 1

Q. Given the entry UAUCUUCUAAUGCAAUCCU against RTP2 , would its reported seed-corrected z-score be below -0.3?
A. label 0

Q. Given the entry UGCUUUAUUAUUAAUGGAC against PABPC3 , would its reported seed-corrected z-score be below -0.3?
A. label 1

Q. Given the entry UUUCUUCACGUGGAUAGCC against GABRG2 , would its reported seed-corrected z-score be below -0.3?
A. label 0

Q. Given the entry UAGCUUCGAAUAAACAUCC against FAM3D , would its reported seed-corrected z-score be below -0.3?
A. label 1

Q. Given the entry UGCAGUAGAAUUUACACGC against RB1 , would its reported seed-corrected z-score be below -0.3?
A. label 1

Q. Given the entry AUAAUACCAACUCAAAUGC against FRRS1L , would its reported seed-corrected z-score be below -0.3?
A. label 0

Q. Given the entry AUAUGCUUCACCUCUUUAC against SNTB2 , would its reported seed-corrected z-score be below -0.3?
A. label 1

Q. Given the entry UUUUCAUAGAGGAUGAUCU against CRYBB2 , would its reported seed-corrected z-score be below -0.3?
A. label 0

Q. Given the entry UUUUGCACCUGGGUCCUAC against LRWD1 , would its reported seed-corrected z-score be below -0.3?
A. label 0

Q. Given the entry UUGAAGACCAGGUAUUCCC against AGBL4 , would its reported seed-corrected z-score be below -0.3?
A. label 1

Q. Given the entry ACAUCCUUAAGAAAUAUGG against PLEKHA2 , would its reported seed-corrected z-score be below -0.3?
A. label 1

Q. Given the entry AAUAUGUCGUUGUAAGUGC against ZNF644 , would its reported seed-corrected z-score be below -0.3?
A. label 0

Q. Given the entry UCCAUAGCAGGAUUAUUGC against ACSL4 , would its reported seed-corrected z-score be below -0.3?
A. label 1

Q. Given the entry UUCGAUAGUAACAAAGUUC against PCDH9 , would its reported seed-corrected z-score be below -0.3?
A. label 1

Q. Given the entry UUUUCGGUAACUCUGCGUG against SPEN , would its reported seed-corrected z-score be below -0.3?
A. label 1

Q. Given the entry UAACGAUACAUUUGCUUGG against SGIP1 , would its reported seed-corrected z-score be below -0.3?
A. label 0

Q. Given the entry UUCUGGAUUCUUGACCGCU against KRBOX4 , would its reported seed-corrected z-score be below -0.3?
A. label 0

Q. Given the entry UGACGUAUAUCAAUGCUCC against RRAGC , would its reported seed-corrected z-score be below -0.3?
A. label 1

Q. Given the entry AAAGGAGCAUAAAUUUAGU against LOC400867 , would its reported seed-corrected z-score be below -0.3?
A. label 0

Q. Given the entry UUUGAUACCUCCUUUACCC against HELB , would its reported seed-corrected z-score be below -0.3?
A. label 0

Q. Given the entry AAUGUGGUUGAGCUGAUCC against MAPK3 , would its reported seed-corrected z-score be below -0.3?
A. label 1

Q. Given the entry GACGGCAUCAAUCAGGUCC against PYCR1 , would its reported seed-corrected z-score be below -0.3?
A. label 0

Q. Given the entry AUCUUUCGAACUACAAUUG against PSME4 , would its reported seed-corrected z-score be below -0.3?
A. label 0

Q. Given the entry UUUGUAAGCUCUGUCAUCC against FAM13B , would its reported seed-corrected z-score be below -0.3?
A. label 0

Q. Given the entry CACCAGGAUGGUUUGGUUG against BRICD5 , would its reported seed-corrected z-score be below -0.3?
A. label 0

Q. Given the entry UACUAGGUACGAACCGUCC against PPTC7 , would its reported seed-corrected z-score be below -0.3?
A. label 1

Q. Given the entry AUCCAUGUCAGCGUGAGUC against PSD2 , would its reported seed-corrected z-score be below -0.3?
A. label 0

Q. Given the entry UUAGAGUCAUGCAUGAGGG against MROH7 , would its reported seed-corrected z-score be below -0.3?
A. label 0

Q. Given the entry AUUCGAAGUAGUUGUAGCC against FRY , would its reported seed-corrected z-score be below -0.3?
A. label 0

Q. Given the entry UAGGCAAAAACAGUCCACC against B3GNT8 , would its reported seed-corrected z-score be below -0.3?
A. label 0

Q. Given the entry UCCUUGCAAAUCUCCGACC against LTBP3 , would its reported seed-corrected z-score be below -0.3?
A. label 1

Q. Given the entry AUAAGCAACACCAUUAUGG against BOLL , would its reported seed-corrected z-score be below -0.3?
A. label 0

Q. Given the entry AAGCGGGAUGAAGAAAUCC against GSX2 , would its reported seed-corrected z-score be below -0.3?
A. label 0

Q. Given the entry AGAAUUCUGAGGGCGGAGC against UCN2 , would its reported seed-corrected z-score be below -0.3?
A. label 1
